Assay: qHTS assay to identify small molecule antagonists of the androgen receptor (AR) signaling pathway using the MDA cell line - cell viability counter screen (AID 743041; also: nearly all actives have a fitted effect of over 45% in size)
Conditions: MDA-kb2 viability, CellTiter-Fluor, 16 h, cells co-treated with R1881 androgen agonist; series mostly up to 70.3 µM
Results filed as inconclusive are left out. Activity calls are given as the source filed them. Calls follow the shape of the dose curve; as a rule, active = well fitted cell-killing curve with a large enough effect in the repeat runs; inconclusive = weak or mixed curves, or effect the other way; inactive = flat fitted curve, though single readings scatter.
Give your call using only these classes: active, inactive

Solved cases (2 shown):
> print(dat)
                              molecule  assigned.class
1      CCCCOCCOP(=O)(OCCOCCCC)OCCOCCCC        inactive
2  CC(O)CCO (configuration not stated)        inactive

Exam item: What call does the record list for CC(C)NC(C)C ?
Marked response: inactive

Exam item: For CCCCN(CCCC)N=O , what call appears in the results of this test?
Marked response: inactive

Exam item: Test call for this molecule, please: c1ccc(N=Nc2ccccc2)cc1
Marked response: inactive

Exam item: State the result this test recorded for NC(=S)Nc1ccccc1 .
Marked response: inactive

###

Molecular target: Estrogen receptor (Homo sapiens) (UniProt P03372)
Sequence (P03372 whole entry, looked up): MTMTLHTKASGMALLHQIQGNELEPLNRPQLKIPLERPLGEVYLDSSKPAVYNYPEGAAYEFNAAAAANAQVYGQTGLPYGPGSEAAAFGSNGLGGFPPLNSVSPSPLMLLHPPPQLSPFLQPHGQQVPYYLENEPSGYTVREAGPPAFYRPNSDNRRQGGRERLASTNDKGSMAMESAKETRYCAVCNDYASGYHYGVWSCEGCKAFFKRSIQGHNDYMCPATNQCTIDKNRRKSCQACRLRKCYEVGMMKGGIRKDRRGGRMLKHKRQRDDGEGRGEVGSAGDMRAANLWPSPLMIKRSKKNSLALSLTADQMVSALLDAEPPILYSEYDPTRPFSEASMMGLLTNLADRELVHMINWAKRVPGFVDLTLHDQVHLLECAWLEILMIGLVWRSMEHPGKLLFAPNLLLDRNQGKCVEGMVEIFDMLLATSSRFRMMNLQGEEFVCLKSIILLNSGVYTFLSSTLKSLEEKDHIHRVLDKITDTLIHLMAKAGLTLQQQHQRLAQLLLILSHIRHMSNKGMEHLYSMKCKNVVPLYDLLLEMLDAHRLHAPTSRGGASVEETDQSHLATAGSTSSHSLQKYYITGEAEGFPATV
Assay: qHTS assay to identify small molecule antagonists of the estrogen receptor alpha (ER-alpha) signaling pathway (AID 743069)
Details: HEK293 ER-alpha-UAS-bla, beta-lactamase ratio, antagonist mode; series mostly up to 69.4 µM
Inconclusive results are not listed. Active and inactive are the calls of the source. Calls follow the shape of the dose curve; as a rule, active = well fitted curve in the direction sought with a large enough effect in the signal ratio in the repeat runs (not every such curve was filed as active); inconclusive = weak or mixed curves, or effect the other way; inactive = no such curve, though single readings can be large or run the other way; the % refers to the signal ratio.
measured.attribute: Potency

Below: 5 compounds and their reported Potency.
> print(dat)
                                   compound    result
1                             COP(=O)(OC)OC  inactive
2   C=C(C)C(=O)OCC1CO1 (stereo unspecified)  inactive
3                               CC(C)NC(C)C  inactive
4                            CCN(N=O)C(N)=O  inactive
5  COC(=O)c1sccc1S(=O)(=O)NC(=O)Nc1nc(C)nc(OC)n1  inactive

Given item CCCCCCCCC(=O)NCc1ccc(O)c(OC)c1 , the value recorded as its Potency is inactive

The reported value for Cc1ccccc1[N+](=O)[O-] in terms of Potency is inactive

Per the records, this compound ( NNC(=S)NN ) has Potency equal to inactive

compound CCCCNC(=O)n1c(NC(=O)OC)nc2ccccc21 , Potency observed: inactive

For NC(=S)Nc1ccccc1 the compound record lists Potency as inactive

Entry under test: Clc1nc(Cl)nc(Cl)n1 . Its Potency was inactive

###

Experiment: qHTS assay to identify small molecule agonists of the NFkB signaling pathway (AID 1159509)
Details: NFkB-bla ME-180 cells, beta-lactamase FRET ratio, 5 h; series mostly up to 61 µM
Inconclusive results are not listed. Calls of active or inactive are those of the source. The call rests on the fitted dose curve; in most records, active means well fitted curve in the direction sought with a large enough effect in the signal ratio in the repeat runs (not every such curve was filed as active); inconclusive means weak or mixed curves, or a change in a side signal; inactive means no such curve, though single readings can be large or run the other way; the % refers to the signal ratio.
measured.attribute: outcome

Some compounds with known outcome results, for comparison:
> print(dat)
                                   compound    result
1                                 S=C1NCCN1  inactive
2                       Oc1cc(Cl)c(Cl)cc1Cl  inactive
3                                 Nc1cccnc1  inactive
4  CCCCCCCCCCCOC(=O)c1ccccc1C(=O)OCCCCCCCCCCC  inactive
5                               CC(C)NC(C)C  inactive

GET /value?item= COP(=S)(OC)Oc1cc(Cl)c(Cl)cc1Cl &field=outcome returns inactive

Notebook: C[C@]12CCC(=O)C(O)=C1CC[C@@H]1[C@@H]2CC[C@]2(C)C(=O)CC[C@@H]12 , outcome read as inactive

// field: outcome; key: C=C(C)C(=O)OCC1CO1 (stereo not given) ; value = inactive

The recorded outcome for entry CCC(CC)Nc1c([N+](=O)[O-])cc(C)c(C)c1[N+](=O)[O-] equals inactive

Measured outcome, O=P(O)(O)CCCl : inactive

response.value for Nc1ccc(-c2ccccc2)cc1 (field: outcome) = inactive

Input N#CC(Br)Br . Output outcome: inactive

Notebook: CN(C)c1ccc(C(=O)c2ccc(N(C)C)cc2)cc1 , outcome read as inactive

The compound COP(=O)(OC)OC showed outcome equal to inactive

CC(C)c1ccc(CO)cc1 yielded outcome of inactive
